# Test system: HEK293T cells
# method: MTT cytotoxicity assay against HEK293T
# Type: cell-based
# condition: Homo sapiens, HEK-293T, 25 µM, 48 h, read-out: Percentage of inhibition against treated concentrations
value-kind: activity at 25 µM (%)
Give the quantity in %, number only.

For the compound O=C(c1cccc(C(F)(F)F)n1)N1CCn2c3ccccc3c(=O)c3cccc1c32 , give its measured activity at 25 µM value.
88.6

Fill in reported activity at 25 µM for this entry: O=c1c2ccccc2n2c3c(cccc13)N(c1cccnc1)CC2
80.6

Look up and state reported activity at 25 µM for O=C(c1cccnc1)N1CCn2c3ccccc3c(=O)c3cccc1c32
95.2

Identify the reported activity at 25 µM for the following entry. O=C(c1ccccc1C(F)(F)F)N1CCn2c3ccccc3c(=O)c3cccc1c32
86.9

Supply activity at 25 µM value. Item: Cc1cccc(C(=O)N2CCn3c4ccccc4c(=O)c4cccc2c43)n1
91.7

Consider the compound O=C(c1ccc(F)cc1)N1CCn2c3ccccc3c(=O)c3cccc1c32 . State its measured activity at 25 µM.
88.1

For the compound O=C(c1ccccc1)N1CCn2c3ccccc3c(=O)c3cccc1c32 , give its reported activity at 25 µM.
82.8

Look up and state reported activity at 25 µM for Cc1ccc(C(=O)N2CCn3c4ccccc4c(=O)c4cccc2c43)nc1
80.5

Return activity at 25 µM (reported value) for this compound: O=C(c1ccc(C(F)(F)F)cc1)N1CCn2c3ccccc3c(=O)c3cccc1c32
80.7

Answer with the recorded activity at 25 µM of O=C(c1ccccc1F)N1CCn2c3ccccc3c(=O)c3cccc1c32 only.
82.3

Please report activity at 25 µM for the following compound: O=C(c1cccc(C(F)(F)F)c1)N1CCn2c3ccccc3c(=O)c3cccc1c32
84.3

Answer with the recorded activity at 25 µM of O=C(c1ccccn1)N1CCn2c3ccccc3c(=O)c3cccc1c32 only.
96.8

Retrieve activity at 25 µM measured for O=C(c1ccsc1)N1CCn2c3ccccc3c(=O)c3cccc1c32 and print it.
78.5

Give reported activity at 25 µM value for COc1cccc2c1C(=O)c1c(O)c3c(c(O)c1C2=O)C[C@@](O)(C(=O)CO)C[C@@H]3O[C@H]1C[C@H](N)[C@H](O)[C@H](C)O1 [Doxorubicin, reference compound]
85.3

Note activity at 25 µM for the compound shown: O=C(CC1CC1)N1CCn2c3ccccc3c(=O)c3cccc1c32
96.3

Entry O=C(c1cccc(F)c1)N1CCn2c3ccccc3c(=O)c3cccc1c32 needs its activity at 25 µM filled in; supply it.
91.3

Answer with reported activity at 25 µM of Cc1cccnc1C(=O)N1CCn2c3ccccc3c(=O)c3cccc1c32
81.2

Check the records and state activity at 25 µM for O=C(c1ccc(O)cc1)N1CCn2c3ccccc3c(=O)c3cccc1c32
95.5

Consider the compound O=c1c2ccccc2n2c3c(cccc13)N(c1nccs1)CC2 . State its measured activity at 25 µM.
84.2

Please list activity at 25 µM recorded for the compound O=C(c1ccncc1)N1CCn2c3ccccc3c(=O)c3cccc1c32
83.3

###

# System: HT29 cells
# method: MTT cytotoxicity assay against HT29
# Format: cell-based
# condition: Homo sapiens, HT-29, HT29, 10 µM, 48 h, read-out: Percentage of inhibition against treated concentrations
value-kind: activity at 10 µM (%)
Please state the figure in %; there is no need to write the unit.

State measured activity at 10 µM of the compound O=C(c1ccsc1)N1CCn2c3ccccc3c(=O)c3cccc1c32 with HT29 cells.
50.2

Under HT29 cells, report activity at 10 µM for Cc1ccc(C(=O)N2CCn3c4ccccc4c(=O)c4cccc2c43)nc1
49.2

Find activity at 10 µM for O=C(c1ccc(C(F)(F)F)cc1)N1CCn2c3ccccc3c(=O)c3cccc1c32 on HT29 cells and write it down.
69.5

Please tell me the measured activity at 10 µM for O=C(CC1CC1)N1CCn2c3ccccc3c(=O)c3cccc1c32 ; system: HT29 cells.
50.9

# lookup: HT29 cells activity at 10 µM, key = O=C(c1ccccc1C(F)(F)F)N1CCn2c3ccccc3c(=O)c3cccc1c32
68.5

Give measured activity at 10 µM for Cc1cccc(C(=O)N2CCn3c4ccccc4c(=O)c4cccc2c43)n1 (HT29 cells).
49.1

Enter recorded activity at 10 µM with HT29 cells for O=C(c1cccc(F)c1)N1CCn2c3ccccc3c(=O)c3cccc1c32 here.
70.6

###

# System: HT29 cells
# method: MTT cytotoxicity assay against HT29
# Type: cell-based
# condition: Homo sapiens, HT-29, HT29, 1 µM, 48 h, read-out: Percentage of inhibition against treated concentrations
value-kind: activity at 1 µM (%)
# number only, unit % dropped from output

Look up activity at 1 µM of O=C(c1ccc(O)cc1)N1CCn2c3ccccc3c(=O)c3cccc1c32 and report it.
96.6

Hello, please tell me recorded activity at 1 µM for this one: O=C(c1ccccc1)N1CCn2c3ccccc3c(=O)c3cccc1c32
97.2

Recall and state the measured activity at 1 µM for O=C(c1cccc(C(F)(F)F)c1)N1CCn2c3ccccc3c(=O)c3cccc1c32 .
95.3

Note down activity at 1 µM recorded for O=C(c1ccccc1F)N1CCn2c3ccccc3c(=O)c3cccc1c32
90.4

Please give the documented activity at 1 µM of O=C(c1ccc(F)cc1)N1CCn2c3ccccc3c(=O)c3cccc1c32
91.9

State its activity at 1 µM: Cc1ccc(C(=O)N2CCn3c4ccccc4c(=O)c4cccc2c43)nc1
86.9

Return activity at 1 µM for the following molecule: O=c1c2ccccc2n2c3c(cccc13)N(c1nccs1)CC2
89.5

# return recorded activity at 1 µM for entry O=C(c1cccc(C(F)(F)F)n1)N1CCn2c3ccccc3c(=O)c3cccc1c32
83.6

// fetch activity at 1 µM given entry O=C(c1cccc(F)c1)N1CCn2c3ccccc3c(=O)c3cccc1c32
95

###

# Tested on: HT29 cells
# method: MTT cytotoxicity assay against HT29
# Format: cell-based
# condition: Homo sapiens, HT-29, HT29, 1 µM, 48 h, read-out: Percentage of inhibition against treated concentrations
# Experimental: Anticancer activity of 7a–s has been evaluated by MTT [3-(4,5-dimethylthiazol-2-yl)-2,5-diphenyl-tetrazolium bromide] assay and the cell lines HT29 (ATCC: HTB-38), MDA-MB-231 (ATCC: HTB-26), HEK293T (ATCC: CRL-3216) were procured from American type cell culture collection (ATCC), Manassas, USA and other chemicals were procured from Sigma-Aldrich. Then absorbance (used as a measure of cell proliferation) was measured at 570 nm with a kinetic micro-plate reader (BioTek, Winooski, Vermont). […]
value-kind: activity at 1 µM (%)
Form entry: value (%) — number only.

Identify activity at 1 µM associated with the compound O=C(c1ccncc1)N1CCn2c3ccccc3c(=O)c3cccc1c32
90

Give me measured activity at 1 µM, please, for this compound: O=C(CC1CC1)N1CCn2c3ccccc3c(=O)c3cccc1c32
88.7

Give activity at 1 µM for the following compound: O=C(c1cccnc1)N1CCn2c3ccccc3c(=O)c3cccc1c32
89.9

Provide activity at 1 µM value for the following compound: O=C(c1ccsc1)N1CCn2c3ccccc3c(=O)c3cccc1c32
87.9
